Origin of values: patent US20060040944A1

Tested on: DENV-2
ASSAY_PROCEDURE: Antiviral activity against DENV-2 (Table 2)
CONDITION_DETAILS: read-out: DENV-2 EC50; DENV-2
ASSAY_READOUT: EC50

Enquiry: Note EC50 for the compound shown: Nc1nc(=O)n2ccn([C@H]3C[C@H](O)[C@@H](CO)O3)c2n1
Return: > 100 µM

----------
Tested on: BT cells
ASSAY_READOUT: CC50

Enquiry: Note CC50 for the compound shown: Nc1nc(=O)n2ccn([C@H]3C[C@H](O)[C@@H](CO)O3)c2n1
Return: > 100 µM

----------
ASSAY_PROCEDURE: in vitro
CONDITION_DETAILS: hamster
ASSAY_READOUT: CC50

Enquiry: Note CC50 for the molecule shown: Nc1nc(=O)n2ccn([C@@H]3O[C@H](CO)[C@@H](O)[C@H]3O)c2n1
Return: > 100 µM
